B1: CPEB3 Ribozyme (parent)
chain: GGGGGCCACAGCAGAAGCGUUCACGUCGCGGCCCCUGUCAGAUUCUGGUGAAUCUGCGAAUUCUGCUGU

Variants of: B1
Experiment: self-cleavage, relative activity (ratio to wild type); higher = more cleavage; co-transcriptional
Label condition met when self-cleavage is at or above 0.7; otherwise label condition not met.

G2C U43G	condition not met
G30A A42U	condition not met
C6G A13U	condition not met
A60U U69A	condition not met
A16G U55G	condition not met
G48U U62G	condition met
C7G G30C	condition met
C6G A15G	condition not met
A16G C32A	condition not met
A10U C27U	condition not met
U21C A23G	condition met
G4C C7G	condition not met
A15G U20C	condition not met
G28C G68C	condition not met
G11C G31C	condition not met
G47C U67A	condition met
C35U C39U	condition met
C33G U69C	condition met
A13C C33U	condition met
A23C G48U	condition met
A8U C22A	condition not met
A23C A59U	condition not met
C18A U20A	condition not met
U36A C54A	condition not met
G48C G68C	condition met
C33A U67C	condition met
A15C A40U	condition not met
C33A A42U	condition not met
C22G G31A	condition not met
G11C U69C	condition met
U38G	condition not met
G19C A59U	condition not met
C45U G58C	condition met
C35G G41C	condition not met
C12G G37U	condition not met
G41C C54U	condition met
C39A U62G	condition not met
U20G U67C	condition not met
C18G C57G	condition not met
G48A U49A	condition met
C9A C39U	condition met
G41C U46G	condition met
G2C G3U	condition not met
C33U G65C	condition not met
C24G G65U	condition not met
U26A C39U	condition met
U26A C29U	condition not met
C33G G56U	condition not met
U46A G47C	condition met
C33U U36A	condition not met
G3C U53A	condition not met
A59U U69G	condition met
G17A U20G	condition not met
C12U U21C	condition met
G4U C22G	condition not met
C34A A52U	condition not met
U46C G68U	condition met
A13U C27G	condition not met
C6U U67C	condition met
C29G A42C	condition not met
A23C G30U	condition not met
C32U U44C	condition met
G37A G58A	condition not met
A16U G37C	condition not met
C29G A59G	condition not met
